Source: patent US20240309103A1

Kd by entry:
- TESTED SYSTEM: T1, human NPR1 extracellular domain expressed with a C-terminal mouse IgG2a (hNPR1-mFc) (human)
- T1 construct: also called hNPR1-Fc; human NPR1 dimer
- T1 chain: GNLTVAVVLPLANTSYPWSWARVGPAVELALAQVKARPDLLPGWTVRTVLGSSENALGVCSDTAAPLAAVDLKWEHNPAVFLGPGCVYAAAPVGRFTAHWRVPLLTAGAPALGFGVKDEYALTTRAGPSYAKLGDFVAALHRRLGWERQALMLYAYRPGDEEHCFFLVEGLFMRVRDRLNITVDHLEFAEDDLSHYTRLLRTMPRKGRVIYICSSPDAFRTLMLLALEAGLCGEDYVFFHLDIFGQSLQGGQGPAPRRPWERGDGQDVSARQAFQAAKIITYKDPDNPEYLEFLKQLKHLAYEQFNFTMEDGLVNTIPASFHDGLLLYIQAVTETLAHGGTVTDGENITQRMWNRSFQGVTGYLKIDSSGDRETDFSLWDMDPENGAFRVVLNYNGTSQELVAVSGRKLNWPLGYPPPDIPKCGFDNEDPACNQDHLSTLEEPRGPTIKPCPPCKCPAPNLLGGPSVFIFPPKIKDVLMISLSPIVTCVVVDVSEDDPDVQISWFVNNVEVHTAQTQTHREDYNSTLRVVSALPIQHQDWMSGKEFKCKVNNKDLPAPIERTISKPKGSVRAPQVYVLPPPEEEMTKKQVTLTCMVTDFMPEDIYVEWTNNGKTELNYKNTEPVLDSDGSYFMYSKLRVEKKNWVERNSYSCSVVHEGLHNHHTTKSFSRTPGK
- ASSAY COMMENT: SPR, mAb captured, 25 C
Please reply with the bare figure in nM and do not write the unit itself.

mAb22035 (antibody, V domains shown) VH: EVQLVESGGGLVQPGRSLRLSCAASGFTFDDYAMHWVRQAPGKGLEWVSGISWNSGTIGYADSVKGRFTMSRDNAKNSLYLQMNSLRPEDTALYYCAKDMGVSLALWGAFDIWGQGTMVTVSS VL: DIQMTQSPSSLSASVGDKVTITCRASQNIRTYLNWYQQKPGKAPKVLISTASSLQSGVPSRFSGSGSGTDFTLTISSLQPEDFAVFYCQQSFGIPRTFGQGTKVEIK = 0.365

Now consider the entry below.
Task item: If you can, please state the reported Kd value of mAb22033 (antibody, V domains shown) VH: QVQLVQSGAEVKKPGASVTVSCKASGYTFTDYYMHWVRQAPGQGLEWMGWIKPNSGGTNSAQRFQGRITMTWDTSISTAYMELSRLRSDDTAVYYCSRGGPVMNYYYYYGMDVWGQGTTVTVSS VL: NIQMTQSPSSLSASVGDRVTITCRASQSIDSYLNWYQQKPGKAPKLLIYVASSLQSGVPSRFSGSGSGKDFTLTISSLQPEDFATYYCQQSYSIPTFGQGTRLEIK .
Reply: 1.03
